The entries below are paired with their reported AC50.
- study target: POLγA:A467T (Homo sapiens, UniProt P54098, A467T)
- assay name: DNA polymerization assay, POLγA:A467T mutant
- Format: biochemical
- applied conditions: stimulation of polymerase activity, primed M13mp18 ssDNA, 37° C. 2 hours; read-out: A467T AC50
property: AC50

                                 item_smiles  property  value_measured
 0  Cc1cc(S(=O)(=O)N[C@H]2CCCN(C(=O)[C@H]3CCCN3C)C2)c(C)cc1Cl      AC50        > 100 µM
 1  Cc1cc(S(=O)(=O)Nc2cccc(C(=O)N(C(C)C)C3COC3)c2)c(C)cc1Cl      AC50        > 100 µM
 2  Cc1ccc(C)c(S(=O)(=O)Nc2ccc(C(=O)N3CCCC[C@H]3C)s2)c1      AC50        > 100 µM
 3  O=S(=O)(Nc1csc(-c2ccccc2)n1)c1ccc(C(F)(F)F)cc1      AC50        > 100 µM
 4  Cc1cc(-c2cccc(NS(=O)(=O)c3cc(C)c(Cl)cc3C)c2)n[nH]1      AC50           11 µM
 5  Cc1cc(S(=O)(=O)Nc2cccc(C(=O)N3CCCC[C@H]3C)c2)c(C)cc1Cl      AC50           18 µM
 6  Cc1cc(S(=O)(=O)N[C@@H]2CCCN(C(=O)N3CCCC3)C2)c(C)cc1Cl      AC50        > 100 µM
 7  Cc1csc(-c2cccc(NS(=O)(=O)c3cc(C)c(Cl)cc3C)c2)n1      AC50            4 µM
 8  CNC(=O)c1cnc(-c2cccc(NS(=O)(=O)c3cc(C)c(Cl)cc3C)c2)s1      AC50        > 100 µM
 9  Cc1ccc(C)c(S(=O)(=O)Nc2cccc(C(=O)N3CCCCC3)c2)c1      AC50           48 µM
10  COc1cccc(-c2nc(NS(=O)(=O)c3cc(C)c(Cl)cc3C)cs2)c1      AC50            1 µM
11  Cc1cnc(-c2ccccc2NS(=O)(=O)c2cc(C)c(Cl)cc2C)s1      AC50        > 100 µM
12  Cc1cc(S(=O)(=O)Nc2cc(-c3nccs3)ccc2F)c(C)cc1Cl      AC50        > 100 µM
13  Cc1cc(S(=O)(=O)Nc2nsc(-c3ccccc3)n2)c(C)cc1Cl      AC50        > 100 µM
14  Cc1ccc(C)c(S(=O)(=O)Nc2cccc(C(N)=O)c2)c1      AC50        > 100 µM
15  Cc1nc2c(NS(=O)(=O)c3cc(C)c(Cl)cc3C)cccc2s1      AC50        > 100 µM
16  Cc1cc(S(=O)(=O)Nc2ccccc2-c2ncco2)c(C)cc1Cl      AC50        > 100 µM
17  Cc1cc(S(=O)(=O)Nc2cccc(C(=O)N3CCC[C@H]3C)c2F)c(C)cc1Cl      AC50        > 100 µM
18  Cc1cc(Cl)ccc1S(=O)(=O)Nc1csc(-c2ccccc2)n1      AC50           32 µM
19  Cc1cc(S(=O)(=O)Nc2csc(C3CCOCC3)n2)c(C)cc1Cl      AC50            8 µM
20  Cc1cc(S(=O)(=O)N[C@@H]2CCCN(C(=O)[C@H]3CCCN3C)C2)c(C)cc1Cl      AC50        > 100 µM
21  Cc1cc(S(=O)(=O)Nc2cccc(-c3ncc(CO)s3)c2)c(C)cc1Cl      AC50            8 µM
22  Cc1ccc(C)c(S(=O)(=O)Nc2csc(-c3ccccc3)n2)c1      AC50            3 µM
23  Cc1cc(S(=O)(=O)Nc2cccc(C(=O)N3CCCC4(CC4)C3)c2)c(C)cc1Cl      AC50        > 100 µM
24  Cc1ccc(C)c(S(=O)(=O)Nc2cccc(C(=O)N3CCCCCC3)c2)c1      AC50        > 100 µM
25  CC(=O)N1CCC(c2nc(NS(=O)(=O)c3cc(C)c(Cl)cc3C)cs2)CC1      AC50        > 100 µM
26  Cc1cc(S(=O)(=O)Nc2cccc(-c3ncc(C#N)s3)c2)c(C)cc1Cl      AC50           24 µM
27  Cc1cc(S(=O)(=O)Nc2cccc(C(=O)NCc3ccccc3)c2)c(C)cc1Cl      AC50           49 µM

====

- study target: POLγA:G848S (Homo sapiens, UniProt P54098, G848S)
- assay name: DNA polymerization assay, POLγA:G848S mutant
- Type: biochemical
- applied conditions: stimulation of polymerase activity, primed M13mp18 ssDNA, 37° C. 2 hours; read-out: G848S AC50
- Method: DNA Polymerization Assay to Monitor Effects on Human Wildtype POLγ and Four Disease-Causing Mutant Variants of Human POLγ. The ability of small molecules to stimulate the polymerase activity of POLγ was analyzed in a quantitative fluorescence SYBR Green I assay with fluorescence intensity (FI) readout. […] The assay was performed in the 384-well plate format. Upon addition of compounds, changes in double-stranded DNA synthesis activity can be monitored by following effects on fluorescent intensity. […]
property: AC50

>>> df
                                   molecule  value_measured
0  Cc1cc(NS(=O)(=O)c2cc(C)ccc2C)cc(C(=O)N2CCCC[C@H]2C)c1 [Example 42]        > 100 µM
1  Cc1csc(-c2ccccc2NS(=O)(=O)c2cc(C)c(Cl)cc2C)n1 [Example 80]         > 10 µM
2  Cc1ccc(C)c(S(=O)(=O)Nc2cccc(C(=O)N3CCN(C)CC3)c2)c1 [Example 31]        > 100 µM
3  Cc1cc(S(=O)(=O)N(C)c2cccc(-c3nccs3)c2)c(C)cc1Cl [Example 22]        > 100 µM
4  Cc1cc(S(=O)(=O)Nc2csc(C(=O)N(C)CC(N)=O)n2)c(C)cc1Cl [Example 172]         > 10 µM

====

- study target: wild type human POLγ (POLγA:WT) (Homo sapiens, UniProt P54098)
- Sequence (P54098 1-1239): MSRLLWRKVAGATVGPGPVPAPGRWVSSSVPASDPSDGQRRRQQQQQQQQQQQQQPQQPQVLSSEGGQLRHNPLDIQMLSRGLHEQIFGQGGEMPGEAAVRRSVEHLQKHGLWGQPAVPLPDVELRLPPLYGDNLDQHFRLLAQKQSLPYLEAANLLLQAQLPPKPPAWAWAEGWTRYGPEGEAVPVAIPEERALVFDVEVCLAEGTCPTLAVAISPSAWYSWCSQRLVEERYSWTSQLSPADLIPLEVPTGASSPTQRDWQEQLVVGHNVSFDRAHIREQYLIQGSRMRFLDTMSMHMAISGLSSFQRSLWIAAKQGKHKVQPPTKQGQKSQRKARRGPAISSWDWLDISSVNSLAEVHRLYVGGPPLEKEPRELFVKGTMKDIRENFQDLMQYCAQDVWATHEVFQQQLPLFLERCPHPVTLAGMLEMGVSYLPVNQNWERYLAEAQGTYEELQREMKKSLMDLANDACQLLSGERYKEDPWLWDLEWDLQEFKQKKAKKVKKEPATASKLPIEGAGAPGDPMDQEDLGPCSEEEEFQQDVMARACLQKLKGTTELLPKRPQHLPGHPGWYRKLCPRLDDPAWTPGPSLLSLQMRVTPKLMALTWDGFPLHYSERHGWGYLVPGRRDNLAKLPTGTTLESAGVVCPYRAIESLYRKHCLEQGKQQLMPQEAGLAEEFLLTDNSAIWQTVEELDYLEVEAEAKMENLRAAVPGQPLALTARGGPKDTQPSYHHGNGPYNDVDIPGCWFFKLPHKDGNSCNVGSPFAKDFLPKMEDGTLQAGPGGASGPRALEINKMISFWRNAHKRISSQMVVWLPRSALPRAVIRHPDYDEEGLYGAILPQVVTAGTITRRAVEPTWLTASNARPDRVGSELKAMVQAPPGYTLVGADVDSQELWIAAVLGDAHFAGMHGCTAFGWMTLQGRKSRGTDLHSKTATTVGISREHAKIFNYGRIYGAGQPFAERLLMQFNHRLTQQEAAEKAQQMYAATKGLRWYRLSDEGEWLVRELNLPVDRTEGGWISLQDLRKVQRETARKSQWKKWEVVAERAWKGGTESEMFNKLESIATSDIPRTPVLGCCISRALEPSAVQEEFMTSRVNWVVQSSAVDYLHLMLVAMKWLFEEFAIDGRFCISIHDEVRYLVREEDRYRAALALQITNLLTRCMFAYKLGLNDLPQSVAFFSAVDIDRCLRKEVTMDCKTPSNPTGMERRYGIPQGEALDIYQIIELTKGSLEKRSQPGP
- Sequence (Q9UHN1 1-485 partner): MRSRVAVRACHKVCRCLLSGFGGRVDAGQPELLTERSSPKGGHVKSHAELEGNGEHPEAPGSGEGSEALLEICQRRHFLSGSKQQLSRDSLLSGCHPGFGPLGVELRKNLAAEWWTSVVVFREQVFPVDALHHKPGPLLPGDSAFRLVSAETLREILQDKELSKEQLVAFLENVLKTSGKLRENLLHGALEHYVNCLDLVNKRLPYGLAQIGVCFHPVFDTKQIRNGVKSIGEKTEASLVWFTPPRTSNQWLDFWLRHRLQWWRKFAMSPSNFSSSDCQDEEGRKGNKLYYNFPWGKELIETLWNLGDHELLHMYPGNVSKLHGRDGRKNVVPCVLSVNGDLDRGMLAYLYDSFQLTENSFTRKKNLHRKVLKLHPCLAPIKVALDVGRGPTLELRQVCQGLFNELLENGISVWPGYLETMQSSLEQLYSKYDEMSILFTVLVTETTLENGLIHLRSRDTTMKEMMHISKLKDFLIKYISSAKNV
- assay name: DNA polymerization assay, wild type POLγ
- Type: biochemical
- applied conditions: 100 μM dNTP, read-out: WT AC50 (μM) at 100 μM
Labelling: AC50 reported below 1 µM becomes T; at or above becomes F.

>>> df
                                    compound  assigned_category
 0  Cc1cc(S(=O)(=O)Nc2cccc(C(=O)N3CCCC4(CC4)C3)c2)c(C)cc1Cl [Example 105]                  F
 1  Cc1cc(S(=O)(=O)Nc2csc(-n3cccn3)n2)c(C)cc1Cl [Example 178]                  F
 2  Cc1cc(S(=O)(=O)Nc2cccc(-c3ncc(C(N)=O)s3)c2)c(C)cc1Cl [Example 92]                  F
 3  Cc1cc(S(=O)(=O)Nc2cccc(C(=O)N(C)C(C)CO)c2)c(C)cc1Cl (single isomer, unassigned) [Example 15]                  F
 4  Cc1cc(S(=O)(=O)Nc2cccc(C(=O)N3CCCOC(C)(C)C3)c2)c(C)cc1Cl [Example 106]                  F
 5  Cc1cc(S(=O)(=O)Nc2cccc(C(=O)N3CCCC34CC4)c2)c(C)cc1Cl [Example 162]                  T
 6  Cc1cnc(-c2cc(NS(=O)(=O)c3cc(C)c(Cl)cc3C)ccc2Cl)s1 [Example 111]                  F
 7  Cc1cc(S(=O)(=O)Nc2csc(C3CCOCC3)n2)c(C)cc1Cl [Example 167]                  F
 8  Cc1cc(NS(=O)(=O)c2cc(C)c(Cl)cc2C)cc(-c2ncc(C)s2)c1 [Example 110]                  F
 9  Cc1ccc(C)c(S(=O)(=O)Nc2cccc(C(=O)N[C@@H](C)C3CC3)c2)c1 [Example 8]                  F
10  Cc1cc(S(=O)(=O)Nc2nc(-c3ccccc3)no2)c(C)cc1Cl [Example 143]                  F
11  CC[C@@H]1CCCN1C(=O)c1cccc(NS(=O)(=O)c2cc(C)c(Cl)cc2C)c1 [Example 65]                  F
12  Cc1cc(-c2cccc(NS(=O)(=O)c3cc(C)c(Cl)cc3C)c2)n[nH]1 [Example 66]                  T
13  Cc1cc(S(=O)(=O)Nc2csc(-c3ccccn3)n2)c(C)cc1Cl [Example 173]                  T
14  Cc1cc(S(=O)(=O)Nc2cn(C)c(-c3ccccc3)n2)c(C)cc1Cl [Example 170]                  F
15  Cc1csc(-c2cccc(NS(=O)(=O)c3cc(C)c(Cl)cc3C)c2)n1 [Example 20]                  T
16  Cc1nc2ccc(NS(=O)(=O)c3cc(C)c(Cl)cc3C)cc2s1 [Example 73]                  F
17  O=S(=O)(Nc1csc(-c2ccccc2)n1)c1cccc(C(F)(F)F)c1 [Example 151]                  F
18  Cc1cc(S(=O)(=O)Nc2csc(C(=O)N(CC(N)=O)C3CCCC3)n2)c(C)cc1Cl [Example 177]                  F
19  Cc1cc(S(=O)(=O)Nc2cccc(-c3ncc(CO)s3)c2)c(C)cc1Cl [Example 89]                  T
20  Cc1ccc(C)c(S(=O)(=O)Nc2cccc(C(=O)N3CCCCC3)c2)c1 [Example 3]                  F
21  Cc1cc(S(=O)(=O)Nc2cccc(C(=O)N3CCCC3)c2)c(C)cc1Cl [Example 119]                  F
22  Cc1cc(S(=O)(=O)Nc2nc(-c3ccccc3)n(C)n2)c(C)cc1Cl [Example 180]                  F
